# MEASUREMENT TARGET: Melanocortin receptor 4 (Homo sapiens, UniProt P32245)
# Sequence (P32245 whole entry): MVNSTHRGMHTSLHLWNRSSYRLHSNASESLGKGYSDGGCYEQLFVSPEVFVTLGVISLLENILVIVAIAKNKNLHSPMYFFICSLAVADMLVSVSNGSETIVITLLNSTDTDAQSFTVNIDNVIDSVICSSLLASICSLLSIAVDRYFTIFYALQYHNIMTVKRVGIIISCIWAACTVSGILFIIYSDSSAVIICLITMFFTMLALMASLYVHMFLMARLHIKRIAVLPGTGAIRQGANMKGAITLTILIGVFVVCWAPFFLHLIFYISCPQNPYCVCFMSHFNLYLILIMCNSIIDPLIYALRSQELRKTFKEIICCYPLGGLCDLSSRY
Square brackets hold non-standard residues; d marks the D form. Peptide text beside a SMILES is read from it. d2Nal = N[C@H](Cc1ccc2ccccc2c1)C(=O)O; Nle = CCCC[C@H](N)C(=O)O
RESULT TYPE: Ki (µM)
Numeric only. Scale: µM

[
  {
    "COMPOUND": "CC(C)[C@H](NC(=O)[C@@H](N)Cc1ccc(O)cc1)C(=O)NC1CSSCC(C(=O)N[C@@H](CCCN=C(N)N)C(=O)N[C@@H](Cc2ccccc2)C(=O)NCC(N)=O)NC(=O)[C@H](Cc2c[nH]c3ccccc23)NC(=O)[C@H](CCCN=C(N)N)NC(=O)[C@@H](Cc2ccccc2)NC(=O)[C@H](Cc2c[nH]cn2)NC(=O)CNC1=O (stereo in doubt)",
    "UNIT INFO": "µM",
    "Ki": 0.46
  }
]

CCCC[C@H](NC(=O)[C@@H](NC(=O)[C@@H](N)Cc1ccc(O)cc1)C(C)C)C(=O)NCC(=O)N1CCC[C@H]1C(=O)N[C@H](Cc1ccc2ccccc2c1)C(=O)N[C@@H](CCCN=C(N)N)C(=O)N[C@@H](Cc1c[nH]c2ccccc12)C(=O)N[C@@H](CC(=O)O)C(=O)N[C@@H](CCCN=C(N)N)C(=O)N[C@@H](Cc1ccccc1)C(=O)NCC(N)=O (H-YV[Nle]GP[d2Nal]RWDRFG-NH2) yielded Ki of 0.00022
